- Tested on: human Factor 7 mRNA
- EXPERIMENT NOTES: Antisense inhibition of human Factor 7 mRNA in HepB3 cells, 50 nM antisense oligonucleotide, lipofectin
- Format: cell-based
- EXPERIMENTAL PARAMETERS: oligonucleotides targeted to nucleobases 11830 to 11869 of SEQ ID NO: 1 (Table 9)
Strand notation (5' to 3'): a small letter for the sugar, then the base; units joined by * are phosphorothioate-linked, units joined directly phosphodiester-linked; [ ] holds rarer units or linkages, { } end groups; capitals alone tell only the bases. e = 2'-O-(2-methoxyethyl) (MOE); [5mC] = 5-methylcytosine; d = 2'-deoxy (DNA)
MEASURED METRIC: % Inhibition (human Factor 7 mRNA levels) (%)

>  <SUBSTANCE>
422161 (antisense eA*e[5mC]*eA*dA*dT*dG*dG*dT*d[5mC]*dA*dG*dG*dG*d[5mC]*dT*dG*dG*eT*eT*eT) [compound 422161]

>  <RESULT NUMBER>
53

$$$$
>  <SUBSTANCE>
422155 (antisense eG*eT*e[5mC]*dA*dG*dG*dG*d[5mC]*dT*dG*dG*dT*dT*dT*dT*dG*dG*eA*eG*eG) [compound 422155]

>  <RESULT NUMBER>
34

$$$$
>  <SUBSTANCE>
416549 (antisense eG*eA*e[5mC]*eA*eA*dT*dG*dG*dT*d[5mC]*dA*dG*dG*dG*d[5mC]*eT*eG*eG*eT*eT) [compound 416549]

>  <RESULT NUMBER>
69

$$$$
>  <SUBSTANCE>
422171 (antisense eG*eG*e[5mC]*dT*dG*dA*dG*dG*dA*dG*dA*d[5mC]*dA*dA*dT*dG*dG*eT*e[5mC]*eA) [compound 422171]

>  <RESULT NUMBER>
61

$$$$
>  <SUBSTANCE>
422100 (antisense eG*eA*eG*eG*eA*dG*dA*d[5mC]*dA*dA*dT*dG*dG*dT*d[5mC]*eA*eG*eG*eG*e[5mC]) [compound 422100]

>  <RESULT NUMBER>
59

$$$$
>  <SUBSTANCE>
422099 (antisense eA*eG*eG*eA*eG*dA*d[5mC]*dA*dA*dT*dG*dG*dT*d[5mC]*dA*eG*eG*eG*e[5mC]*eT) [compound 422099]

>  <RESULT NUMBER>
48

$$$$
>  <SUBSTANCE>
422089 (antisense eG*eT*e[5mC]*eA*eG*dG*dG*d[5mC]*dT*dG*dG*dT*dT*dT*dT*eG*eG*eA*eG*eG) [compound 422089]

>  <RESULT NUMBER>
22

$$$$
>  <SUBSTANCE>
422169 (antisense e[5mC]*eT*eG*dA*dG*dG*dA*dG*dA*d[5mC]*dA*dA*dT*dG*dG*dT*d[5mC]*eA*eG*eG) [compound 422169]

>  <RESULT NUMBER>
56

$$$$
>  <SUBSTANCE>
422236 (antisense eA*eA*dT*dG*dG*dT*d[5mC]*dA*dG*dG*dG*d[5mC]*dT*dG*dG*eT*eT*eT*eT*eG) [compound 422236]

>  <RESULT NUMBER>
44

$$$$
>  <SUBSTANCE>
422239 (antisense eG*eA*d[5mC]*dA*dA*dT*dG*dG*dT*d[5mC]*dA*dG*dG*dG*d[5mC]*eT*eG*eG*eT*eT) [compound 422239]

>  <RESULT NUMBER>
67

$$$$
>  <SUBSTANCE>
422154 (antisense eT*e[5mC]*eA*dG*dG*dG*d[5mC]*dT*dG*dG*dT*dT*dT*dT*dG*dG*dA*eG*eG*eA) [compound 422154]

>  <RESULT NUMBER>
31

$$$$
>  <SUBSTANCE>
422105 (antisense eT*eG*eG*e[5mC]*eT*dG*dA*dG*dG*dA*dG*dA*d[5mC]*dA*dA*eT*eG*eG*eT*e[5mC]) [compound 422105]

>  <RESULT NUMBER>
60

$$$$
>  <SUBSTANCE>
422243 (antisense eA*eG*dG*dA*dG*dA*d[5mC]*dA*dA*dT*dG*dG*dT*d[5mC]*dA*eG*eG*eG*e[5mC]*eT) [compound 422243]

>  <RESULT NUMBER>
62

$$$$
>  <SUBSTANCE>
422170 (antisense eG*e[5mC]*eT*dG*dA*dG*dG*dA*dG*dA*d[5mC]*dA*dA*dT*dG*dG*dT*e[5mC]*eA*eG) [compound 422170]

>  <RESULT NUMBER>
28

$$$$
>  <SUBSTANCE>
422102 (antisense e[5mC]*eT*eG*eA*eG*dG*dA*dG*dA*d[5mC]*dA*dA*dT*dG*dG*eT*e[5mC]*eA*eG*eG) [compound 422102]

>  <RESULT NUMBER>
62

$$$$
>  <SUBSTANCE>
422097 (antisense eG*eA*eG*eA*e[5mC]*dA*dA*dT*dG*dG*dT*d[5mC]*dA*dG*dG*eG*e[5mC]*eT*eG*eG) [compound 422097]

>  <RESULT NUMBER>
59

$$$$
>  <SUBSTANCE>
422104 (antisense eG*eG*e[5mC]*eT*eG*dA*dG*dG*dA*dG*dA*d[5mC]*dA*dA*dT*eG*eG*eT*e[5mC]*eA) [compound 422104]

>  <RESULT NUMBER>
59

$$$$
>  <SUBSTANCE>
422107 (antisense eG*e[5mC]*eT*eG*eG*d[5mC]*dT*dG*dA*dG*dG*dA*dG*dA*d[5mC]*eA*eA*eT*eG*eG) [compound 422107]

>  <RESULT NUMBER>
36

$$$$
>  <SUBSTANCE>
422173 (antisense e[5mC]*eT*eG*dG*d[5mC]*dT*dG*dA*dG*dG*dA*dG*dA*d[5mC]*dA*dA*dT*eG*eG*eT) [compound 422173]

>  <RESULT NUMBER>
51

$$$$
>  <SUBSTANCE>
422106 (antisense e[5mC]*eT*eG*eG*e[5mC]*dT*dG*dA*dG*dG*dA*dG*dA*d[5mC]*dA*eA*eT*eG*eG*eT) [compound 422106]

>  <RESULT NUMBER>
32

$$$$
>  <SUBSTANCE>
422247 (antisense eG*e[5mC]*dT*dG*dA*dG*dG*dA*dG*dA*d[5mC]*dA*dA*dT*dG*eG*eT*e[5mC]*eA*eG) [compound 422247]

>  <RESULT NUMBER>
36

$$$$
>  <SUBSTANCE>
422237 (antisense e[5mC]*eA*dA*dT*dG*dG*dT*d[5mC]*dA*dG*dG*dG*d[5mC]*dT*dG*eG*eT*eT*eT*eT) [compound 422237]

>  <RESULT NUMBER>
50

$$$$
>  <SUBSTANCE>
422101 (antisense eT*eG*eA*eG*eG*dA*dG*dA*d[5mC]*dA*dA*dT*dG*dG*dT*e[5mC]*eA*eG*eG*eG) [compound 422101]

>  <RESULT NUMBER>
42

$$$$
